Molecular target: HCV NS3/4A protease genotype 1b (Hepatitis C virus genotype 1b, UniProt P26663)
Assay: HCV NS3/4A protease time-resolved fluorescence (TRF) assay, Ki against genotype 1b
Assay type: biochemical
Conditions: IC50 [gt-1b] (nM), NS3/4A genotype 1b, enzyme 0.2 nM
MEASURED PROPERTY: IC50 (nM)
Please state the figure in nM; there is no need to write the unit.

MOLECULE: Cc1nc2ccc(OC(F)(F)F)cc2c2c1O[C@]1(CC2)C[C@H]2C(=O)N[C@]3(C(=O)NS(=O)(=O)C4(C)CC4)C[C@H]3/C=C\CCCCC[C@H](NC(=O)OC(C)(C)C)C(=O)N2C1 [Example 1]
RECORDED VALUE: 0.013
//
MOLECULE: Cc1nc2ccccc2c2c1O[C@]1(CC2)C[C@H]2C(=O)N[C@]3(C(=O)NS(=O)(=O)C4(C)CC4)C[C@H]3/C=C\CCCCC[C@H](NC(=O)OC3CC(F)(F)C3(F)F)C(=O)N2C1 (stereo partly drawn) [Example 321]
RECORDED VALUE: 0.03

Kindly consider the entry below.
Entry under test: Cc1nc2ccc(OC(F)(F)F)cc2c2c1O[C@]1(CC2)C[C@H]2C(=O)N[C@]3(C(=O)NS(=O)(=O)C4(C)CC4)C[C@H]3/C=C\CCCCC[C@H](NC(=O)N3CCCC3)C(=O)N2C1 [Example 246] . Its IC50 was 0.004

====

Target: HCV NS3/4A protease A156T mutant (Hepatitis C virus genotype 1b, UniProt P26663, A1182T)
Test: HCV NS3/4A protease time-resolved fluorescence (TRF) assay, Ki against A156T mutant
Type: biochemical
Settings: NS3/4A protease TRF assay, A156T mutant enzyme 0.4 nM; K+ salt; read-out: IC50 [gt-1b A156T]
MEASURED PROPERTY: IC50
Numeric answer plus unit only.

Examples from the recorded data:
COMPOUND: CC1(S(=O)(=O)NC(=O)[C@@]23C[C@H]2/C=C\CCCCC[C@H](NC(=O)OC2C[C@@H]4C[C@@H]4C2)C(=O)N2C[C@@]4(CCc5c(c(C(F)(F)F)nc6ccc(OCF)cc56)O4)C[C@H]2C(=O)N3)CC1 (stereo partly drawn)
RECORDED VALUE: 0.6 nM
//
COMPOUND: CC[C@@H](C)OC(=O)N[C@H]1CCCCC/C=C\[C@@H]2C[C@@]2(C(=O)NS(=O)(=O)C2(C)CC2)NC(=O)[C@@H]2C[C@]3(CCc4c(c(C(F)(F)F)nc5ccc(OC)cc45)O3)CN2C1=O
RECORDED VALUE: 2.65 nM

Continue with the compound presented below.
According to the records, this compound `COc1ccc2nc(C(F)(F)F)c3c(c2c1)CC[C@]1(C[C@H]2C(=O)N[C@]4(C(=O)NS(=O)(=O)C5(C)CC5)C[C@H]4/C=C\CCCCC[C@H](NC(=O)OCC(C)(C)C)C(=O)N2C1)O3` displays IC50 of 2.34 nM

====

# IC50 per record follows
Biological target: HCV NS3/4A protease A156T mutant (Hepatitis C virus genotype 1b, UniProt P26663, A1182T)
Test: HCV NS3/4A protease time-resolved fluorescence (TRF) assay, Ki against A156T mutant
Type: biochemical
Conditions: NS3/4A gt-1b A156T mutant, enzyme 0.4 nM; K+ salt; read-out: IC50 [gt-1b A156T]
Number in nM, nothing else.

Observe how each entry below is paired with its result.
CHEMICAL SMILES: Cc1nc2ccc(Cl)cc2c2c1O[C@]1(CC2)C[C@H]2C(=O)N[C@]3(C(=O)NS(=O)(=O)C4(C)CC4)C[C@H]3/C=C\CCCCC[C@H](NC(=O)OCC(C)C)C(=O)N2C1
IC50 / nM: 0.062
//
CHEMICAL SMILES: Cc1nc2cc(F)c(F)cc2c2c1O[C@]1(CC2)C[C@H]2C(=O)N[C@]3(C(=O)NS(=O)(=O)C4(C)CC4)C[C@H]3/C=C\CCCCC[C@H](NC(=O)OC3(C)CC3)C(=O)N2C1
IC50 / nM: 0.134

Okay, next one:
Measured IC50 of `Cc1nc2cc(F)c(F)cc2c2c1O[C@]1(CC2)C[C@H]2C(=O)N[C@]3(C(=O)NS(=O)(=O)C4(C)CC4)C[C@H]3/C=C\CCCCC[C@H](NC(=O)OC(C)C)C(=O)N2C1` : 0.0541

====

Biological target: HCV NS3/4A protease genotype 1b (Hepatitis C virus genotype 1b)
Test: HCV NS3/4A protease time-resolved fluorescence (TRF) assay, Ki against genotype 1b
Format: biochemical
Settings: IC50 [gt-1b] (nM), NS3/4A genotype 1b, enzyme 0.2 nM; HCOOH salt
Reported IC50 values are given for each entry in this list.
Value expressed in nM; do not type the unit.

MOLECULE: CCN(CC)C(=O)N[C@H]1CCCCC/C=C\[C@@H]2C[C@@]2(C(=O)NS(=O)(=O)C2(C)CC2)NC(=O)[C@@H]2C[C@]3(CCc4c(c(C)nc5ccccc45)O3)CN2C1=O
UNITS TEXT: nM
RECORDED VALUE: 0.023
--
MOLECULE: CCCCNC(=O)N[C@H]1CCCCC/C=C\[C@@H]2C[C@@]2(C(=O)NS(=O)(=O)C2(C)CC2)NC(=O)[C@@H]2C[C@]3(CCc4c(c(C)nc5ccccc45)O3)CN2C1=O
UNITS TEXT: nM
RECORDED VALUE: 0.013

Query `Cc1nc2ccccc2c2c1O[C@]1(CC2)C[C@H]2C(=O)N[C@]3(C(=O)NS(=O)(=O)C4(C)CC4)C[C@H]3/C=C\CCCCC[C@H](NC(=O)N3CCOCC3)C(=O)N2C1` yields IC50 of 0.032

Record `Cc1nc2ccccc2c2c1O[C@]1(CC2)C[C@H]2C(=O)N[C@]3(C(=O)NS(=O)(=O)C4(C)CC4)C[C@H]3/C=C\CCCCC[C@H](NC(=O)NC3CCCC3)C(=O)N2C1` , field IC50: 0.012

Sure, the documented IC50 for `Cc1nc2ccccc2c2c1O[C@]1(CC2)C[C@H]2C(=O)N[C@]3(C(=O)NS(=O)(=O)C4(C)CC4)C[C@H]3/C=C\CCCCC[C@H](NC(=O)N(C(C)C)C(C)C)C(=O)N2C1` is 0.021

====

Target: HCV NS3/4A protease genotype 1b (Hepatitis C virus genotype 1b, UniProt P26663)
Assay: HCV NS3/4A protease time-resolved fluorescence (TRF) assay, Ki against genotype 1b
Format: biochemical
Details: IC50 [gt-1b] (nM), NS3/4A genotype 1b, enzyme 0.2 nM
Criterion: IC50 strictly less than 0.01 nM. Met: 1.0. Not met: 0.0.

Check out these entries, answers already filled in.
MOLECULE: Cc1nc2ccccc2c2c1O[C@]1(CC2)C[C@H]2C(=O)N[C@]3(C(=O)CS(=O)(=O)C4(C)CC4)C[C@H]3/C=C\CCCCC[C@H](NCCC3CCCC3)C(=O)N2C1
CLASS NAME: 0.0
--
MOLECULE: CC(C)(OC(=O)N[C@H]1CCCCC/C=C\[C@@H]2C[C@@]2(C(=O)NS(=O)(=O)C2(C)CC2)NC(=O)[C@@H]2C[C@]3(CCc4c(c(C(F)F)nc5ccc(Cl)cc45)O3)CN2C1=O)C(F)(F)F
CLASS NAME: 0.0
--
MOLECULE: CC(C)COC(=O)N[C@H]1CCCCC/C=C\[C@@H]2C[C@@]2(C(=O)NS(=O)(=O)C2(C)CC2)NC(=O)[C@@H]2C[C@]3(CCc4c(c(C5CC5)nc5ccccc45)O3)CN2C1=O
CLASS NAME: 0.0
--
MOLECULE: Cc1nc2ccccc2c2c1O[C@]1(CC2)C[C@H]2C(=O)N[C@]3(C(=O)NS(=O)(=O)C4(C)CC4)C[C@H]3/C=C\CCCCC[C@H](NS(=O)(=O)C3CC3)C(=O)N2C1
CLASS NAME: 0.0
--
MOLECULE: CCc1nc2ccc(OC)cc2c2c1O[C@]1(CC2)C[C@H]2C(=O)N[C@]3(C(=O)NS(=O)(=O)C4(C)CC4)C[C@H]3/C=C\CCCCC[C@H](NC(=O)OCC(C)C)C(=O)N2C1
CLASS NAME: 1.0

## Input Could you please tell me whether IC50 recorded for `COc1ccc2nc(C(C)C)c3c(c2c1)C(F)(F)C[C@]1(C[C@H]2C(=O)N[C@]4(C(=O)NS(=O)(=O)C5(C)CC5)C[C@H]4/C=C\CCCCC[C@H](NC(=O)OC4CCCC4)C(=O)N2C1)O3` is less than 0.01 nM?
## Output 1.0

## Input # strict comparison: is reported IC50 < 0.01 nM? input = `Cc1nc2cc(F)c(F)cc2c2c1O[C@]1(CC2)C[C@H]2C(=O)N[C@]3(C(=O)NS(=O)(=O)C4(C)CC4)C[C@H]3/C=C\CCCCC[C@H](NC(=O)OCC3CCCC3)C(=O)N2C1`
## Output 0.0

## Input Find out if reported IC50 for COc1ccc2nc(C)c3c(c2c1)CC[C@]1(C[C@H]2C(=O)N[C@]4(C(=O)NS(=O)(=O)C5(C)CC5)C[C@H]4/C=C\CCCCC[C@H](NC(=O)OC4CC5CC(=O)OC5C4)C(=O)N2C1)O3 (some centres unmarked) is less than 0.01 nM
## Output 1.0

## Input Consider `COc1ccc2nc(C(F)(F)F)c3c(c2c1)OC[C@]1(C[C@H]2C(=O)N[C@]4(C(=O)NS(=O)(=O)C5(C)CC5)C[C@H]4/C=C\CCCCC[C@H](NC(=O)OC(C)(C)C)C(=O)N2C1)O3` . Does its IC50 lie strictly below 0.01 nM?
## Output 0.0

## Input Regarding `COc1ccc2nc(C(C)C)c3c(c2c1)CC[C@]1(C[C@H]2C(=O)N[C@]4(C(=O)NS(=O)(=O)C5(C)CC5)C[C@H]4/C=C\CCCCC[C@H](NC(=O)OC4CCCC4)C(=O)N2C1)O3` , kindly confirm whether its IC50 is beneath 0.01 nM.
## Output 0.0

Reference source for all entries: patent US8987195B2
